target: GDP-KRAS G12D mutant protein (Homo sapiens, UniProt P01116, G12D); construct: purchased Daegu Gyeongbuk Medical Innovation Foundation (DGMIF), made to order; assay: Differential scanning fluorimetry (DSF) binding affinity to GDP-KRAS G12D mutant protein; conditions: DSF thermal shift, 10 μM compound, 4 μg KRAS protein
I would appreciate it if you labelled entries yes (1) when GDP-KRAS G12D (ΔTmD, ° C.) is 8 °C or higher, otherwise no (0).

Query: Item CCc1c(F)ccc2cc(O)cc(-c3cc4nc(OC[C@@]56CCCN5C[C@H](F)C6)nc(NCC5(N(C)C)CCC5)c4n4ccnc34)c12 [Example 4] with GDP-KRAS G12D (ΔTmD, ° C.) of 8 °C or above?
Result: no (0)

Query: Item C#Cc1c(F)ccc2cc(O)cc(-c3c(F)c4nc(OC[C@@]56CCCN5CC(=C(F)F)C6)nc(N5CC6CCC(C5)N6)c4c4cc(C)oc34)c12 [Example 66] with GDP-KRAS G12D (ΔTmD, ° C.) of 8 °C or above?
Result: yes (1)

Query: Item Cc1cc(N)nc(-c2cc3nc(OC[C@@]45CCCN4C[C@H](F)C5)nc(N4[C@@H]5CC[C@H]4CNC5)c3n3ccnc23)c1C(F)(F)F [Example 20] with GDP-KRAS G12D (ΔTmD, ° C.) of 8 °C or above?
Result: no (0)

Query: Item C#Cc1c(F)ccc2cc(N)cc(-c3c(F)c4nc(OC[C@@]56CCCN5C[C@H](F)C6)nc(N5C[C@H]6CC[C@@H](C5)N6)c4c4cc(C)oc34)c12 [Example 57] with GDP-KRAS G12D (ΔTmD, ° C.) of 8 °C or above?
Result: yes (1)

Query: Item C#Cc1c(F)ccc2cc(O)cc(-c3cc4nc(OCC5(CN6CCO[C@H](C)C6)CC5)nc(N5C[C@H]6CC[C@@H](C5)N6)c4n4ccnc34)c12 [Example 11] with GDP-KRAS G12D (ΔTmD, ° C.) of 8 °C or above?
Result: yes (1)

Query: Item CN(C)C1(CNc2nc(OC[C@@]34CCCN3C[C@H](F)C4)nc3cc(-c4cc(O)cc5ccc(F)c(F)c45)c4nccn4c23)CCC1 [Example 5] with GDP-KRAS G12D (ΔTmD, ° C.) of 8 °C or above?
Result: no (0)

Query: Item C#Cc1c(F)ccc2cc(O)cc(-c3cc4nc(OCC5(CN6CCC[C@H](F)C6)CC5)nc(N5[C@@H]6CC[C@H]5CNC6)c4n4ccnc34)c12 [Example 19] with GDP-KRAS G12D (ΔTmD, ° C.) of 8 °C or above?
Result: no (0)

Query: Item Cn1cc2c(n1)c(-c1cc(O)cc3ccc(F)c(F)c13)c(F)c1nc(OC[C@@]34CCCN3C/C(=C\F)C4)nc(N3C[C@H]4CC[C@@H](C3)N4)c12 [Example 86] with GDP-KRAS G12D (ΔTmD, ° C.) of 8 °C or above?
Result: yes (1)

Query: Item CCc1c(F)ccc2cc(O)cc(-c3cc4nc(OC[C@@]56CCCN5C[C@H](F)C6)nc(N5C[C@H]6CC[C@@H](C5)N6)c4c4cn(C)nc34)c12 [Example 83] with GDP-KRAS G12D (ΔTmD, ° C.) of 8 °C or above?
Result: yes (1)

Query: Item C#Cc1c(F)ccc2cc(N)cc(-c3c(F)c4nc(OCC5(CN6CCC7(CC6)CC7(F)F)CC5)nc(N5C[C@H]6CC[C@@H](C5)N6)c4c4cc(C)oc34)c12 [Example 58] with GDP-KRAS G12D (ΔTmD, ° C.) of 8 °C or above?
Result: no (0)

Query: Item C#Cc1c(F)ccc2cc(O)cc(-c3cc4nc(OCC5(CN6C[C@H]7C[C@@H]6CO7)CC5)nc(N5C[C@H]6CC[C@@H](C5)N6)c4n4ccnc34)c12 [Example 10] with GDP-KRAS G12D (ΔTmD, ° C.) of 8 °C or above?
Result: yes (1)
